system: 556581-035-R-J1-PDC spheroids with HUVEC/MSC, viability; experiment: Anticancer human tumor 556581-035-R-J1-PDC patient-derived ovarian carcinoma cell line growth inhibition [IpAb]; conditions: second compound 0.0316 µM; first compound 1 µM; stronger effect = lower value
value kind: viability, T/C (%)
Give the value, in units of %, as a plain number.

Quick check: viability, T/C of Cc1nc(NC(=O)N2CCCC2C(N)=O)sc1-c1ccnc(C(C)(C)C(F)(F)F)c1 (stereo not drawn) + CCN1CCN(Cc2ccc(Nc3ncc(F)c(-c4cc(F)c5nc(C)n(C(C)C)c5c4)n3)nc2)CC1 ?
42

Quick check: viability, T/C of CC1(C)CCC(CN2CCN(c3ccc(C(=O)NS(=O)(=O)c4ccc(NCC5CCOCC5)c([N+](=O)[O-])c4)c(Oc4cnc5[nH]ccc5c4)c3)CC2)=C(c2ccc(Cl)cc2)C1 + CCN1CCN(Cc2ccc(Nc3ncc(F)c(-c4cc(F)c5nc(C)n(C(C)C)c5c4)n3)nc2)CC1 ?
98

Quick check: viability, T/C of C=CCn1c(=O)c2cnc(Nc3ccc(N4CCN(C)CC4)cc3)nc2n1-c1cccc(C(C)(C)O)n1 + CCN1CCN(Cc2ccc(Nc3ncc(F)c(-c4cc(F)c5nc(C)n(C(C)C)c5c4)n3)nc2)CC1 ?
37.2

Quick check: viability, T/C of C=CC(=O)N1CCN(c2nc(=O)n(-c3c(C)ccnc3C(C)C)c3nc(-c4c(O)cccc4F)c(F)cc23)C(C)C1 (stereo not drawn) + CCN1CCN(Cc2ccc(Nc3ncc(F)c(-c4cc(F)c5nc(C)n(C(C)C)c5c4)n3)nc2)CC1 ?
107

Quick check: viability, T/C of CCCS(=O)(=O)Nc1ccc(F)c(C(=O)c2c[nH]c3ncc(-c4ccc(Cl)cc4)cc23)c1F + CCN1CCN(Cc2ccc(Nc3ncc(F)c(-c4cc(F)c5nc(C)n(C(C)C)c5c4)n3)nc2)CC1 ?
104

Quick check: viability, T/C of Cn1ncc(Cl)c1-c1cc(C(=O)NC(CN)Cc2cccc(F)c2)sc1Cl (stereo not drawn) + CCN1CCN(Cc2ccc(Nc3ncc(F)c(-c4cc(F)c5nc(C)n(C(C)C)c5c4)n3)nc2)CC1 ?
56.9

Quick check: viability, T/C of COc1c(OCCCN2CCOCC2)ccc2c3n(c(=NC(=O)c4cnc(N)nc4)nc12)CCN3 + CCN1CCN(Cc2ccc(Nc3ncc(F)c(-c4cc(F)c5nc(C)n(C(C)C)c5c4)n3)nc2)CC1 ?
2.33

Quick check: viability, T/C of Cn1nccc1Nc1nccc(-c2ccn(C(CO)c3ccc(Cl)c(F)c3)c(=O)c2)n1 (stereo not drawn) + CCN1CCN(Cc2ccc(Nc3ncc(F)c(-c4cc(F)c5nc(C)n(C(C)C)c5c4)n3)nc2)CC1 ?
98.5

###

test system: 556581-035-R-J1-PDC spheroids with HUVEC/MSC, viability; assay: Anticancer human tumor 556581-035-R-J1-PDC cell line growth inhibition [IpAb]; conditions: curve of first compound; second compound 1 µM;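 further: spheroids exposed to compounds for 7 days before readout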
value kind: IC50

Quick check: IC50 of CC(C)(C)c1cnc(CSc2cnc(NC(=O)C3CCNCC3)s2)o1 + CC(C)NCC(C(=O)N1CCN(c2ncnc3c2C(C)CC3O)CC1)c1ccc(Cl)cc1 ?
55.2 nM

Quick check: IC50 of CC1(C)CCC(CN2CCN(c3ccc(C(=O)NS(=O)(=O)c4ccc(NCC5CCOCC5)c([N+](=O)[O-])c4)c(Oc4cnc5[nH]ccc5c4)c3)CC2)=C(c2ccc(Cl)cc2)C1 + CCN1CCN(Cc2ccc(Nc3ncc(F)c(-c4cc(F)c5nc(C)n(C(C)C)c5c4)n3)nc2)CC1 ?
2060 nM

Quick check: IC50 of CCCS(=O)(=O)Nc1ccc(F)c(C(=O)c2c[nH]c3ncc(-c4ccc(Cl)cc4)cc23)c1F + CCN1CCN(Cc2ccc(Nc3ncc(F)c(-c4cc(F)c5nc(C)n(C(C)C)c5c4)n3)nc2)CC1 ?
> 10000 nM

Quick check: IC50 of Cn1cnc2c(F)c(Nc3ccc(Br)cc3Cl)c(C(=O)NOCCO)cc21 + CCN1CCN(Cc2ccc(Nc3ncc(F)c(-c4cc(F)c5nc(C)n(C(C)C)c5c4)n3)nc2)CC1 ?
1210 nM

Quick check: IC50 of COc1c(OCCCN2CCOCC2)ccc2c3n(c(=NC(=O)c4cnc(N)nc4)nc12)CCN3 + CCN1CCN(Cc2ccc(Nc3ncc(F)c(-c4cc(F)c5nc(C)n(C(C)C)c5c4)n3)nc2)CC1 ?
12.4 nM

Quick check: IC50 of Cc1nc(NC(=O)N2CCCC2C(N)=O)sc1-c1ccnc(C(C)(C)C(F)(F)F)c1 (stereo unspecified) + CCN1CCN(Cc2ccc(Nc3ncc(F)c(-c4cc(F)c5nc(C)n(C(C)C)c5c4)n3)nc2)CC1 ?
< 31.6 nM

Quick check: IC50 of CC(C)n1nc(-c2ccc3oc(N)nc3c2)c2c(N)ncnc21 + CC(C)NCC(C(=O)N1CCN(c2ncnc3c2C(C)CC3O)CC1)c1ccc(Cl)cc1 ?
3.58 nM

Quick check: IC50 of Cn1ncnc1[C@H]1c2n[nH]c(=O)c3cc(F)cc(c23)N[C@@H]1c1ccc(F)cc1 + CCN1CCN(Cc2ccc(Nc3ncc(F)c(-c4cc(F)c5nc(C)n(C(C)C)c5c4)n3)nc2)CC1 ?
1.65 nM

Quick check: IC50 of CC(=O)c1c(C)c2cnc(Nc3ccc(N4CCNCC4)cn3)nc2n(C2CCCC2)c1=O + CC(C)NCC(C(=O)N1CCN(c2ncnc3c2C(C)CC3O)CC1)c1ccc(Cl)cc1 ?
> 300 nM

Quick check: IC50 of C=CCn1c(=O)c2cnc(Nc3ccc(N4CCN(C)CC4)cc3)nc2n1-c1cccc(C(C)(C)O)n1 + CC(C)NCC(C(=O)N1CCN(c2ncnc3c2C(C)CC3O)CC1)c1ccc(Cl)cc1 ?
145 nM

Quick check: IC50 of Cn1ncc(Cl)c1-c1cc(C(=O)NC(CN)Cc2cccc(F)c2)sc1Cl (stereo unspecified) + CCN1CCN(Cc2ccc(Nc3ncc(F)c(-c4cc(F)c5nc(C)n(C(C)C)c5c4)n3)nc2)CC1 ?
402 nM

Quick check: IC50 of CC1(C)CCC(CN2CCN(c3ccc(C(=O)NS(=O)(=O)c4ccc(NCC5CCOCC5)c([N+](=O)[O-])c4)c(Oc4cnc5[nH]ccc5c4)c3)CC2)=C(c2ccc(Cl)cc2)C1 + CC(C)NCC(C(=O)N1CCN(c2ncnc3c2C(C)CC3O)CC1)c1ccc(Cl)cc1 ?
3810 nM

Quick check: IC50 of CC(C)(C)c1cnc(CSc2cnc(NC(=O)C3CCNCC3)s2)o1 + CCN1CCN(Cc2ccc(Nc3ncc(F)c(-c4cc(F)c5nc(C)n(C(C)C)c5c4)n3)nc2)CC1 ?
13.1 nM

Quick check: IC50 of C=CCn1c(=O)c2cnc(Nc3ccc(N4CCN(C)CC4)cc3)nc2n1-c1cccc(C(C)(C)O)n1 + CCN1CCN(Cc2ccc(Nc3ncc(F)c(-c4cc(F)c5nc(C)n(C(C)C)c5c4)n3)nc2)CC1 ?
36.8 nM

Quick check: IC50 of Cn1ncnc1[C@H]1c2n[nH]c(=O)c3cc(F)cc(c23)N[C@@H]1c1ccc(F)cc1 + CC(C)NCC(C(=O)N1CCN(c2ncnc3c2C(C)CC3O)CC1)c1ccc(Cl)cc1 ?
> 100 nM

Quick check: IC50 of Cn1ncc(Cl)c1-c1cc(C(=O)NC(CN)Cc2cccc(F)c2)sc1Cl (stereo unspecified) + CC(C)NCC(C(=O)N1CCN(c2ncnc3c2C(C)CC3O)CC1)c1ccc(Cl)cc1 ?
1900 nM

Quick check: IC50 of COc1c(OCCCN2CCOCC2)ccc2c3n(c(=NC(=O)c4cnc(N)nc4)nc12)CCN3 + CC(C)NCC(C(=O)N1CCN(c2ncnc3c2C(C)CC3O)CC1)c1ccc(Cl)cc1 ?
19 nM

Quick check: IC50 of CCCS(=O)(=O)Nc1ccc(F)c(C(=O)c2c[nH]c3ncc(-c4ccc(Cl)cc4)cc23)c1F + CC(C)NCC(C(=O)N1CCN(c2ncnc3c2C(C)CC3O)CC1)c1ccc(Cl)cc1 ?
> 10000 nM

Quick check: IC50 of CC(C)n1nc(-c2ccc3oc(N)nc3c2)c2c(N)ncnc21 + CCN1CCN(Cc2ccc(Nc3ncc(F)c(-c4cc(F)c5nc(C)n(C(C)C)c5c4)n3)nc2)CC1 ?
< 0.316 nM

Quick check: IC50 of CC(=O)c1c(C)c2cnc(Nc3ccc(N4CCNCC4)cn3)nc2n(C2CCCC2)c1=O + CCN1CCN(Cc2ccc(Nc3ncc(F)c(-c4cc(F)c5nc(C)n(C(C)C)c5c4)n3)nc2)CC1 ?
> 300 nM

Quick check: IC50 of Cn1cnc2c(F)c(Nc3ccc(Br)cc3Cl)c(C(=O)NOCCO)cc21 + CC(C)NCC(C(=O)N1CCN(c2ncnc3c2C(C)CC3O)CC1)c1ccc(Cl)cc1 ?
55.3 nM
